These entries and their values trace back to PubChem BioAssay (NCI).

tested on: MOLT-4 leukemia; experiment: NCI-60 one-dose screen, 48 h (100 = growth as untreated, 0 = no growth, -100 = all killed); details: 10 µM unless noted
The panel holds about 83,000 compounds, 20% with a hit somewhere; the sample as a whole holds those more often.

[
  {
    "molecule": "COc1ccc(/C=C/C(=O)CCC(=O)O)cc1OC",
    "value.units": "%",
    "growth": 102
  },
  {
    "molecule": "NS(=O)(=O)c1ccc(CCn2c(SCC(=O)N/N=C/c3cc4ccccc4[nH]3)nc3ccccc3c2=O)cc1",
    "value.units": "%",
    "growth": 23.1
  },
  {
    "molecule": "O=C(N/N=C/c1ccc([N+](=O)[O-])o1)c1ccc(O)cc1",
    "value.units": "%",
    "growth": 48.4
  },
  {
    "molecule": "C=CCOc1ccc2c(C)cc(=O)oc2c1",
    "value.units": "%",
    "growth": 107
  },
  {
    "molecule": "Nc1nc(NC2CC2)cc(-c2cccc(Cl)c2Cl)n1",
    "value.units": "%",
    "growth": 28.4
  },
  {
    "molecule": "CNC(=O)c1c(NC(=O)c2cccc(C(F)(F)F)c2)sc2c1CCC(=O)C2",
    "value.units": "%",
    "growth": -7.92
  },
  {
    "molecule": "COc1cc(/C=C/c2cc(/C=C/c3ccc(O)c(OC)c3)n(C(=O)c3ccccc3Br)n2)ccc1O",
    "value.units": "%",
    "growth": -6.53
  },
  {
    "molecule": "Cc1cc([N+](=O)[O-])c(C)cc1N",
    "value.units": "%",
    "growth": 101
  },
  {
    "molecule": "FC(F)(F)c1cc(-c2nnc3n2N=C(Cl)CS3)cc(C(F)(F)F)c1",
    "value.units": "%",
    "growth": -17.6
  },
  {
    "molecule": "Cc1nn(-c2ccccc2)c2nc3c(nc12)C1=NCCN1C(c1ccc(Cl)cc1)N3 (stereo not given)",
    "value.units": "%",
    "growth": 47.3
  },
  {
    "molecule": "CC(C)CCC(=O)[C@@H](C)[C@H]1[C@@H](OC2OCC(O)C(O)C2NS(C)(=O)=O)C[C@H]2[C@@H]3CC=C4C[C@@H](O)CC[C@]4(C)[C@H]3CC[C@]12C (stereo not given in full)",
    "value.units": "%",
    "growth": -0.0897
  },
  {
    "molecule": "O=C(CCl)N1c2ccccc2Oc2ccc3ccccc3c21",
    "value.units": "%",
    "growth": -4.23
  },
  {
    "molecule": "N=C(N)c1ccc(-c2ccc(-c3ccco3)o2)cc1F",
    "value.units": "%",
    "growth": 0.311
  },
  {
    "molecule": "C=CCOC(=O)C1=C(C)NC2=C(C(=O)CC(C)(C)C2)C1c1ccc(OC)cc1 (stereo not given)",
    "value.units": "%",
    "growth": 89.7
  },
  {
    "molecule": "CCCCCCCCN(CCCCCCCC)C(=O)CCl",
    "value.units": "%",
    "growth": 90.6
  },
  {
    "molecule": "COc1ccc(C2=NNC(c3ccc(Oc4nc5c(c(=O)n(C)c(=O)n5C)n4C)c(OC)c3)C2)cc1 (stereo not given)",
    "value.units": "%",
    "growth": 76
  },
  {
    "molecule": "O=C(Nc1cccc(Cl)c1)Nc1ccccc1Cl",
    "value.units": "%",
    "growth": 75
  },
  {
    "molecule": "COc1cc(CN(CCC(O)N2CCCC2=O)Cc2ccc3c(c2)OCO3)cc(OC)c1OC (stereo not given)",
    "value.units": "%",
    "growth": 85.2
  },
  {
    "molecule": "COC(=O)c1ccc2c(c1)nc(-c1cc3ccccc3[nH]c1=O)n2-c1cc(C(C)(C)C)[nH]n1",
    "value.units": "%",
    "growth": 18.1
  },
  {
    "molecule": "C[C@@H]1CC2C3CCC4=CC(=O)C=C[C@]4(C)[C@@]3(Cl)[C@@H](O)C[C@]2(C)[C@@]1(OC(=O)c1ccco1)C(=O)CCl (stereo not given in full)",
    "value.units": "%",
    "growth": 31.5
  }
]
